{"molecule": "CC1(C)S[C@@H]2[C@H](NC(=O)[C@H](N)c3ccc(O)cc3)C(=O)N2[C@H]1C(=O)O", "logP": 0.87}
{"molecule": "CCOc1ccc(OCC(OC(=S)n2ccnc2)C(C)(C)C)cc1 (stereo not given)", "logP": 4.58}
{"molecule": "CC(C)c1ccc(OCC(OC(=O)n2ccnc2)C(C)(C)C)cc1 (stereo not given)", "logP": 4.77}
{"molecule": "COc1ccc(C(=O)OCC2OC(n3cc(I)c(=O)[nH]c3=O)CC2O)cc1 (stereo not given)", "logP": 1.38}
{"molecule": "CCCCCCCCOc1ccc(NC(=O)OCCN2CCOCC2)cc1", "logP": 4.8}
{"molecule": "Nc1ccc(C(=O)O)cc1F", "logP": 1.41}
{"molecule": "CCC(C(=O)OCc1ccccc1C)C(CO)Cc1cncn1C (stereo not given)", "logP": 2.42}
{"molecule": "NC1C2CCC1c1cc(C(F)(F)F)ccc1C2 (stereo not given)", "logP": 3.59}
{"molecule": "CNC=Nc1ccc(C)cc1C", "logP": 2.92}
{"molecule": "CS(=O)(=O)OCCC[Se]CCCOS(C)(=O)=O", "logP": 0.38}
{"molecule": "Cc1cc(OCC(=O)O)ccc1S(C)(=O)=O", "logP": 0.54}
{"molecule": "OC(Cn1ccnc1)(c1ccc(F)cc1)c1ccc(-c2ccncc2)cc1 (stereo not given)", "logP": 2.47}
{"molecule": "O=C(Cc1nc(I)c([N+](=O)[O-])[nH]1)NCc1cccnc1", "logP": 0.88}
{"molecule": "COC(=O)NC1=NCC(c2ccccc2Cl)N1C (stereo not given)", "logP": 2.08}
{"molecule": "CN(C)C(=O)Nc1ccc(Oc2nnnn2C2CCCCC2)cc1", "logP": 2.18}
{"molecule": "CCNP(=O)(OCC)ON=C(C#N)c1ccc([N+](=O)[O-])cc1 (stereo not given)", "logP": 1.76}
{"molecule": "Cc1ccc2nccc(=O)n2c1", "logP": 0.61}
{"molecule": "CCCN1CCOC2c3cccc(O)c3OCC21 (stereo not given)", "logP": 1.93}
{"molecule": "CCOC(=O)Cn1cnc(I)c1[N+](=O)[O-]", "logP": 0.93}
{"molecule": "O=c1[nH]c(=O)n(-c2ccc(Cl)cc2Cl)cc1F", "logP": 1.96}
{"molecule": "CCC1(c2ccccc2)C(=O)NC(=O)N1S(=O)(=O)c1ccccc1 (stereo not given)", "logP": 2.44}
{"molecule": "CC(C)(C)OC(=O)C(C(=O)OC(C)(C)C)=C1SCCS1", "logP": 4.01}
{"molecule": "CCCC(CC)C(=O)O (stereo not given)", "logP": 2.23}
{"molecule": "O=C1c2ccccc2C(=O)C1c1ccc(C(F)(F)F)cc1", "logP": 3.78}
{"molecule": "CCOP(=O)(OCC)OC(=CCl)c1ccc(Cl)cc1Cl", "logP": 3.81}
{"molecule": "CCNC(=O)CCn1ccc(=O)c(O)c1C", "logP": -0.82}
{"molecule": "NC(=O)NCCCCCCn1nc(-c2ccccc2)ccc1=O", "logP": 1.82}
{"molecule": "COc1cc(C(N)=O)ccc1-c1cn2cccnc2n1", "logP": 0.7}
{"molecule": "CC1CCC2C(C)C(O)OC3OC4(C)CCC1C32OO4 (stereo not given)", "logP": 2.19}
{"molecule": "O=C(O)Cn1nnc2ccccc21", "logP": -1.88}
{"molecule": "CNc1nc(C)c(C(=O)CCN2CCCC2)s1", "logP": 1.86}
{"molecule": "COc1cccc2c1C(=O)c1c(O)c3c(c(O)c1C2=O)CC(O)(C(C)=O)CC3OC1CC(NC(=O)CN(C)C)C(O)C(C)O1 (stereo not given)", "logP": 1.26}
{"molecule": "CC(C)(C)C(COc1ccc(-c2ccccc2)cc1)OC(=O)n1ccnc1 (stereo not given)", "logP": 4.56}
{"molecule": "CN(C)CCN1C(=O)c2ccccc2Nc2cc(Cl)ccc21", "logP": 3.73}
{"molecule": "CC(C)(C)C(COc1ccc(F)cc1)OC(=S)n1ccnc1 (stereo not given)", "logP": 4.37}
{"molecule": "COC(=O)NC1=NCC(c2ccccc2F)N1C (stereo not given)", "logP": 1.53}
{"molecule": "O=[N+]([O-])c1ccccc1O[C@@H]1O[C@H](CO)[C@@H](O)[C@H](O)[C@H]1O", "logP": -0.78}
{"molecule": "CCCCn1ccc(=O)c(O)c1CC", "logP": 1.22}
{"molecule": "CNC(=O)Oc1cc(C)c(N(C)C)c(C)c1", "logP": 2.56}
{"molecule": "CNC(=O)N(C)c1nnc(C(F)(F)F)s1", "logP": 1.85}

---

{"compound": "COc1cc(NS(=O)(=O)c2ccc(N)cc2)ncn1", "logP": 0.7}
{"compound": "CC(=O)Nc1cc(C(C)(C)C)c(O)cc1C", "logP": 2.18}
{"compound": "Cc1nc(N)sc1C(=O)CCN1CCCC1", "logP": 1.74}
{"compound": "O=c1[nH]c(=O)n(Cc2ccccc2)cc1F", "logP": 0.89}
{"compound": "CSc1ccc(OCc2ncc([N+](=O)[O-])n2C)cc1", "logP": 2.5}
{"compound": "CCCc1c(C)nc2ccccn2c1=O", "logP": 1.75}
{"compound": "NC12CCCCC1c1ccccc1C2 (configuration not stated)", "logP": 2.94}

---

Would you please tag the item Y when its logP is 2 or above, and N when it is below?

{"compound": "COC(=O)NC1=NCC(c2ccccc2Br)N1 (configuration not stated)", "cat": "N"}
{"compound": "Oc1ccc(C(O)(Cn2ccnc2)c2ccc(-c3ccncc3)cc2)cc1 (configuration not stated)", "cat": "Y"}
{"compound": "COc1cc(S(C)=O)ccc1-c1nc2ncc(N)cc2[nH]1 (configuration not stated)", "cat": "N"}
{"compound": "NS(=O)(=O)c1cc2c(cc1Br)NC=NS2(=O)=O", "cat": "N"}
{"compound": "CCC1(O)CC2CN(CCc3c([nH]c4ccccc34)C(C(=O)OC)(c3cc4c(cc3OC)N(C)C3C(O)(C(=O)OC)C(OC(=O)CN(C)C)C5(CC)C=CCN6CCC43C65)C2)C1 (configuration not stated)", "cat": "Y"}
{"compound": "NC(=O)Nc1ccc(Cl)c(Cl)c1", "cat": "Y"}
{"compound": "CC(C)c1ccc(OCC(OC(=S)n2ccnc2)C(C)(C)C)cc1 (configuration not stated)", "cat": "Y"}
{"compound": "OC(CN1C2CCCCCC21)Cn1ccnc1 (configuration not stated)", "cat": "N"}
{"compound": "COc1ccc(COCc2cccc(CN3CCOCC3)c2)cc1", "cat": "Y"}
{"compound": "CC(C)(CN1CCCCC1)C(=O)c1ccccc1", "cat": "Y"}
{"compound": "CC(=O)N1CCCC1=O", "cat": "N"}
{"compound": "NC1C2CCC1c1cccc(C(F)(F)F)c1C2 (configuration not stated)", "cat": "Y"}
{"compound": "CCN(C)C(=O)CCn1ccc(=O)c(O)c1C", "cat": "N"}
{"compound": "CCC(C)(C)c1ccc(CC(=O)O)cc1", "cat": "Y"}
{"compound": "OCC1OC(O)C(O)C(O)C1O (configuration not stated)", "cat": "N"}
{"compound": "Nc1nc(=O)c2[nH]c(N)c(Cc3cccs3)c2[nH]1", "cat": "N"}
{"compound": "Cc1nnc(C(C)(C)C)c(=O)n1N", "cat": "N"}
{"compound": "C[C@@H]1O[C@@H](O[C@H]2C[C@@H](O)[C@]3(CO)[C@H]4[C@H](O)C[C@]5(C)[C@@H](C6=CC(=O)OC6)CC[C@]5(O)[C@@H]4CC[C@]3(O)C2)[C@H](O)[C@H](O)[C@H]1O", "cat": "N"}
{"compound": "CC(C)(C)C(COc1ccc(Br)cc1)OC(=O)n1ccnc1 (configuration not stated)", "cat": "Y"}
{"compound": "CCOC(=O)n1c(NC(=O)OC)nc2cc(C(=O)c3ccccc3)ccc21", "cat": "Y"}
{"compound": "CN[C@@H](C)[C@H](O)c1ccccc1.Cl", "cat": "N"}
{"compound": "CCn1cc(C(=O)O)c(=O)c2cc(F)c(N3CCNCC3)nc21", "cat": "N"}
{"compound": "CC(O)Cn1cnc2c1c(=O)n(C)c(=O)n2C (configuration not stated)", "cat": "N"}
{"compound": "CNC(=S)NCCCCC(NC(=O)C(CC(=O)N1CCOCC1)Cc1cccc2ccccc12)C(=O)NC(CC1CCCCC1)C(O)CC(=O)NCCN1CCOCC1 (configuration not stated)", "cat": "N"}
{"compound": "CC(n1ccnc1)C(O)(c1ccc(F)cc1)c1ccc(F)cc1 (configuration not stated)", "cat": "Y"}
{"compound": "CCc1nc(S(=O)(=O)Nc2c(F)cccc2F)nn1-c1ccccc1", "cat": "Y"}
